Provide the recorded EC50 for the entries that follow.
Test system: genotype 3a NS3 gene in transient replicon
Test: 3a transient replicon (luciferase reporter)
Assay type: cell-based, HCV
Conditions: Hepatitis C virus, Huh-7, read-out: 3a transient replicon (nM)

// EC50 value for Cc1cc(C(=O)N[C@H]2CCCCC/C=C\[C@@H]3C[C@@]3(C(=O)NS(=O)(=O)C3CC3)NC(=O)[C@@H]3C[C@@H](Oc4nc5cc(OC(F)(F)F)ccc5c5ccccc45)CN3C2=O)no1 : 0.5 to 1 nM

// EC50 value for COc1ccc2c(c1)nc(O[C@@H]1C[C@H]3C(=O)N[C@]4(C(=O)NS(=O)(=O)C5(C)CC5)C[C@H]4/C=C\CCCCC[C@H](NC(=O)c4ccon4)C(=O)N3C1)c1ccc(F)cc12 : 0.1 to 0.5 nM

// EC50 value for CC1(S(=O)(=O)NC(=O)[C@@]23C[C@H]2/C=C\CCCCC[C@H](NC(=O)c2ccn(C(F)F)n2)C(=O)N2C[C@H](Oc4nc5cc(F)ccc5c5ccc(OC(F)(F)F)cc45)C[C@H]2C(=O)N3)CC1 : > 1 nM

====

Tested on: genotype 3a NS3 gene in transient replicon
Assay: 3a transient replicon (luciferase reporter)
Format: cell-based, HCV
Conditions: Hepatitis C virus, Huh-7, read-out: 3a transient replicon (nM)
Provide the recorded EC50 for the entries that follow.

// EC50 value for CC1(S(=O)(=O)NC(=O)[C@@]23C[C@H]2/C=C\CCCCC[C@H](NC(=O)[C@H](O)C(F)(F)F)C(=O)N2C[C@H](Oc4nc5cc(OC(F)(F)F)ccc5c5ccc(F)cc45)C[C@H]2C(=O)N3)CC1 : > 1 nM

// EC50 value for O=C(N[C@H]1CCCCC/C=C\[C@@H]2C[C@@]2(C(=O)NS(=O)(=O)C2CC2)NC(=O)[C@@H]2C[C@@H](Oc3nc4cc(F)ccc4c4cc(F)ccc34)CN2C1=O)c1cscn1 [drawing 124] : > 1 nM

// EC50 value for Cc1ccc(C(=O)N[C@H]2CCCCC/C=C\[C@@H]3C[C@@]3(C(=O)NS(=O)(=O)C3(C)CC3)NC(=O)[C@@H]3C[C@@H](Oc4nc5cc(OC(F)(F)F)ccc5c5cc(F)ccc45)CN3C2=O)s1 : 0.1 to 0.5 nM

// EC50 value for COc1ccc2c(c1)nc(O[C@@H]1C[C@H]3C(=O)N[C@]4(C(=O)NS(=O)(=O)C5(C)CC5)C[C@H]4/C=C\CCCCC[C@H](NC(=O)c4cc(C)on4)C(=O)N3C1)c1ccccc12 : > 1 nM

// EC50 value for CC1(S(=O)(=O)NC(=O)[C@@]23C[C@H]2/C=C\CCCCC[C@H](NC(=O)c2cncs2)C(=O)N2C[C@H](Oc4nc5cc(OC(F)(F)F)ccc5c5ccc(F)cc45)C[C@H]2C(=O)N3)CC1 : > 1 nM

// EC50 value for Cc1ccc(C(=O)N[C@H]2CCCCC/C=C\[C@@H]3C[C@@]3(C(=O)NS(=O)(=O)C3(C)CC3)NC(=O)[C@@H]3C[C@@H](Oc4nc5cc(F)ccc5c5ccccc45)CN3C2=O)s1 : < 1 nM

// EC50 value for CC1(S(=O)(=O)NC(=O)[C@@]23C[C@H]2/C=C\CCCCC[C@H](NC(=O)c2ccon2)C(=O)N2C[C@H](Oc4nc5cc(OC(F)(F)F)ccc5c5ccc(F)cc45)C[C@H]2C(=O)N3)CC1 : 0.5 to 1 nM

// EC50 value for COc1ccc2c(c1)nc(O[C@@H]1C[C@H]3C(=O)N[C@]4(C(=O)NS(=O)(=O)C5CC5)C[C@H]4/C=C\CCCCC[C@H](NC(=O)c4ccn(C)n4)C(=O)N3C1)c1ccc(F)cc12 : 0.5 to 1 nM

// EC50 value for Cn1ccc(C(=O)N[C@H]2CCCCC/C=C\[C@@H]3C[C@@]3(C(=O)NS(=O)(=O)C3(C)CC3)NC(=O)[C@@H]3C[C@@H](Oc4nc5ccccc5c5cc(F)ccc45)CN3C2=O)n1 : 0.5 to 1 nM

// EC50 value for Cn1ccc(C(=O)N[C@H]2CCCCC/C=C\[C@@H]3C[C@@]3(C(=O)NS(=O)(=O)C3(C)CC3)NC(=O)[C@@H]3C[C@@H](Oc4nc5ccccc5c5ccc(OC(F)(F)F)cc45)CN3C2=O)n1 : 0.1 to 0.5 nM

// EC50 value for COc1ccc2c(c1)nc(O[C@@H]1C[C@H]3C(=O)N[C@]4(C(=O)NS(=O)(=O)C5(C)CC5)C[C@H]4/C=C\CCCCC[C@H](NC(=O)c4ccn(C)n4)C(=O)N3C1)c1ccc(F)cc12 : 0.1 to 0.5 nM

// EC50 value for CC1(S(=O)(=O)NC(=O)[C@@]23C[C@H]2/C=C\CCCCC[C@H](NC(=O)[C@H](O)C(F)(F)F)C(=O)N2C[C@H](Oc4nc5cc(F)ccc5c5cc(F)ccc45)C[C@H]2C(=O)N3)CC1 : > 1 nM

// EC50 value for CC1(S(=O)(=O)NC(=O)[C@@]23C[C@H]2/C=C\CCCCC[C@H](NC(=O)c2cncs2)C(=O)N2C[C@H](Oc4nc5cc(F)ccc5c5cc(F)ccc45)C[C@H]2C(=O)N3)CC1 : > 1 nM

// EC50 value for CC1(S(=O)(=O)NC(=O)[C@@]23C[C@H]2/C=C\CCCCC[C@H](NC(=O)[C@H](O)C(F)(F)F)C(=O)N2C[C@H](Oc4nc5ccccc5c5cc(F)ccc45)C[C@H]2C(=O)N3)CC1 : > 1 nM

// EC50 value for COc1ccc2c(c1)nc(O[C@@H]1C[C@H]3C(=O)N[C@]4(C(=O)NS(=O)(=O)C5(C)CC5)C[C@H]4/C=C\CCCCC[C@H](NC(=O)c4ccn(C(F)F)n4)C(=O)N3C1)c1ccc(F)cc12 : 0.5 to 1 nM

// EC50 value for Cc1cc(C(=O)N[C@H]2CCCCC/C=C\[C@@H]3C[C@@]3(C(=O)NS(=O)(=O)C3CC3)NC(=O)[C@@H]3C[C@@H](Oc4nc5cc(F)ccc5c5cc(OC(F)(F)F)ccc45)CN3C2=O)no1 : > 1 nM

// EC50 value for Cc1cc(C(=O)N[C@H]2CCCCC/C=C\[C@@H]3C[C@@]3(C(=O)NS(=O)(=O)C3(C)CC3)NC(=O)[C@@H]3C[C@@H](Oc4nc5cc(F)ccc5c5cc(F)ccc45)CN3C2=O)no1 : > 1 nM

====

Tested on: genotype 1b transient replicon
Assay: 1b transient replicon (luciferase reporter)
Type: cell-based, HCV
Conditions: Hepatitis C virus, HuH-7 cells, 5% FBS
assayEndpoint: EC50

// EC50 value for COc1ccc2c(c1)nc(O[C@@H]1C[C@H]3C(=O)N[C@]4(C(=O)NS(=O)(=O)C5CC5)C[C@H]4/C=C\CCCCC[C@H](NC(=O)c4ccn(C)n4)C(=O)N3C1)c1ccc(F)cc12 : 0.5 to 1 nM

// EC50 value for CC1(S(=O)(=O)NC(=O)[C@@]23C[C@H]2/C=C\CCCCC[C@H](NC(=O)c2ccon2)C(=O)N2C[C@H](Oc4nc5cc(OC(F)(F)F)ccc5c5ccc(F)cc45)C[C@H]2C(=O)N3)CC1 : < 0.1 nM

// EC50 value for CC1(S(=O)(=O)NC(=O)[C@@]23C[C@H]2/C=C\CCCCC[C@H](NC(=O)[C@H](O)C(F)(F)F)C(=O)N2C[C@H](Oc4nc5cc(F)ccc5c5ccccc45)C[C@H]2C(=O)N3)CC1 : < 0.1 nM

// EC50 value for CC1(S(=O)(=O)NC(=O)[C@@]23C[C@H]2/C=C\CCCCC[C@H](NC(=O)c2ccc(F)s2)C(=O)N2C[C@H](Oc4nc5cc(F)ccc5c5ccccc45)C[C@H]2C(=O)N3)CC1 : 0.1 to 0.5 nM

// EC50 value for COc1ccc2c(c1)c(O[C@@H]1C[C@H]3C(=O)N[C@]4(C(=O)NS(=O)(=O)C5CC5)C[C@H]4/C=C\CCCCC[C@H](NC(=O)c4cc(C)on4)C(=O)N3C1)nc1cc(OC(F)(F)F)ccc12 : < 0.1 nM

// EC50 value for Cn1ccc(C(=O)N[C@H]2CCCCC/C=C\[C@@H]3C[C@@]3(C(=O)NS(=O)(=O)C3(C)CC3)NC(=O)[C@@H]3C[C@@H](Oc4nc5cc(OC(F)(F)F)ccc5c5ccc(F)cc45)CN3C2=O)n1 : < 0.1 nM

// EC50 value for Cn1ccc(C(=O)N[C@H]2CCCCC/C=C\[C@@H]3C[C@@]3(C(=O)NS(=O)(=O)C3(C)CC3)NC(=O)[C@@H]3C[C@@H](Oc4nc5ccccc5c5ccc(OC(F)(F)F)cc45)CN3C2=O)n1 : 0.1 to 0.5 nM

// EC50 value for Cc1cc(C(=O)N[C@H]2CCCCC/C=C\[C@@H]3C[C@@]3(C(=O)NS(=O)(=O)C3CC3)NC(=O)[C@@H]3C[C@@H](Oc4nc5cccc(F)c5c5ccccc45)CN3C2=O)no1 : 0.1 to 0.5 nM

// EC50 value for Cc1ccc(C(=O)N[C@H]2CCCCC/C=C\[C@@H]3C[C@@]3(C(=O)NS(=O)(=O)C3(C)CC3)NC(=O)[C@@H]3C[C@@H](Oc4nc5cc(F)ccc5c5cc(F)ccc45)CN3C2=O)s1 : 0.1 to 0.5 nM

// EC50 value for Cc1ccc(C(=O)N[C@H]2CCCCC/C=C\[C@@H]3C[C@@]3(C(=O)NS(=O)(=O)C3(C)CC3)NC(=O)[C@@H]3C[C@@H](Oc4nc5cc(OC(F)(F)F)ccc5c5ccc(F)cc45)CN3C2=O)s1 : 0.1 to 0.5 nM

// EC50 value for Cn1ccc(C(=O)N[C@H]2CCCCC/C=C\[C@@H]3C[C@@]3(C(=O)NS(=O)(=O)C3CC3)NC(=O)[C@@H]3C[C@@H](Oc4nc5cc(F)ccc5c5cc(F)ccc45)CN3C2=O)n1 : 0.1 to 0.5 nM

// EC50 value for CC1(S(=O)(=O)NC(=O)[C@@]23C[C@H]2/C=C\CCCCC[C@H](NC(=O)c2ccon2)C(=O)N2C[C@H](Oc4nc5cc(OC(F)(F)F)ccc5c5ccccc45)C[C@H]2C(=O)N3)CC1 : < 0.1 nM
